# experimentDescription: Hemolytic activity in sheep RBC assessed as hemolysis incubated for 1 hr
# Assay type: ADME, cell-based, Ovis aries, Erythrocyte
# assayContext: sheep red blood cells (erythrocytes)
measuredMetric: HC50 at 1 h (µg/mL)
Give the value, in units of µg/mL, as a plain number.

Challenge: What HC50 at 1 h value was documented for this molecule, "C=CCc1ccc(OCCC[N+](C)(C)CC(=O)NCCCC)c(-c2ccc(OCCC[N+](C)(C)CC(=O)NCCCC)c(CC=C)c2)c1.[Br-].[Br-]" ?
Response given: 789

Challenge: Which HC50 at 1 h is listed for "C=CCc1ccc(O)c(-c2cc(CC=C)ccc2OCCC[N+](C)(C)CC(=O)NCCCCCC)c1.[Br-]" ?
Response given: 743

Challenge: I would be grateful if you could share the reported HC50 at 1 h for "C=CCc1ccc(O)c(-c2ccc(O)c(CC=C)c2)c1" .
Response given: 534

Challenge: Fill in the blank: the reported HC50 at 1 h of "C=CCc1ccc(OCCC[N+](C)(C)CC(=O)N(CCCC)CCCC)c(-c2ccc(OCCC[N+](C)(C)CC(=O)N(CCCC)CCCC)c(CC=C)c2)c1.[Br-].[Br-]" is ____.
Response given: 1080

Challenge: # get_value(readout='HC50 at 1 h', item= "C=CCc1ccc(OCC[N+](C)(C)CC(=O)NCCC)c(-c2ccc(OCC[N+](C)(C)CC(=O)NCCC)c(CC=C)c2)c1.[Br-].[Br-]" )
Response given: 703

Challenge: Which HC50 at 1 h value is on record for "C=CCc1ccc(OCC[N+](C)(C)CC(=O)NCCCCCC)c(-c2ccc(OCC[N+](C)(C)CC(=O)NCCCCCC)c(CC=C)c2)c1.[Br-].[Br-]" ?
Response given: 934

Challenge: Fill in: HC50 at 1 h of "C=CCc1ccc(O)c(-c2cc(CC=C)ccc2OCCCC[N+](C)(C)CC(=O)NCCCC)c1.[Br-]" is ___
Response given: 555
